# Target system: deoxyhypusine synthase from rat testis (Rattus norvegicus, UniProt Q6AY53)
# Construct: as catalyzed by deoxyhypusine synthase from rat testis; from tissue; host or cells: rat testis
# Sequence (Q6AY53 1-369): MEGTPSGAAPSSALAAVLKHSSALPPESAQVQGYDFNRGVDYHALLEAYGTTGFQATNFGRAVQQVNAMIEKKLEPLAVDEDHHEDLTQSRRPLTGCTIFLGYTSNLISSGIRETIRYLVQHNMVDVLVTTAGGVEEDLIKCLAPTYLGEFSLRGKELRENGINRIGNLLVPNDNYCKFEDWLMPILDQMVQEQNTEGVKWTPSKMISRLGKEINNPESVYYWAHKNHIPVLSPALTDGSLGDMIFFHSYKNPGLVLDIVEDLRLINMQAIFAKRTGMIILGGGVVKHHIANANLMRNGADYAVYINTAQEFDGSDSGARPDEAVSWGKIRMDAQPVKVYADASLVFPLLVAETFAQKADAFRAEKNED
# Protocol: Inhibition of deoxyhypusine synthase ([3H]deoxyhypusine formation from [3H]spermidine), IC50/Ki
# Format: biochemical
# Protocol conditions: pH 9.3, 37° C., 1 hour; 2.4 μM [3H]spermidine
Measurement label: inhibition of deoxyhypusine synthase (in words)

Use these answered entries as a reference point.
NCCCCCCCN
strong inhibition
NCCCCCCCCN
strong inhibition
N=C(N)NCCCNCCCN
excellent inhibitors
N=C(N)NCCCCCCCCN
excellent inhibitors

q: Observed inhibition of deoxyhypusine synthase (in words) on deoxyhypusine synthase from rat testis (Rattus norvegicus, UniProt Q6AY53) for N=C(N)NCCCCCCCN , please.
a: excellent inhibitors
